Tested on: NCI/ADR-RES ovarian
Assay: NCI-60 one-dose screen, 48 h (100 = growth as untreated, 0 = no growth, -100 = all killed)
Condition Label: 10 µM
This is part of a sample that, as a whole, favours compounds with a hit. Of some 83,000 tested, about 20% had one in any assay.
For each entry below, report its growth value.
Write the value in % as a bare number.

growth measured on O=C1NN(c2ccccc2)C(c2cccnc2)=N/C1=C\c1cccnc1 = 91.2

growth measured on O=C1/C(=C/c2cccs2)CCC/C1=C\c1cccs1 = 88.7

growth measured on CN1CCN(c2nc(-c3cccnc3)nc3sc4c(c23)CCCCCC4)CC1 = 89.3

* * *

Test system: MDA-MB-231 breast
Assay: NCI-60 one-dose screen, 48 h (100 = growth as untreated, 0 = no growth, -100 = all killed)
Condition Label: 10 µM
This is part of a sample that, as a whole, favours compounds with a hit. Of some 83,000 tested, about 20% had one in any assay.
Categories are assigned from the measured growth using these intervals: band 1 (below 60%), band 2 (60% to below 80%), band 3 (80% or more)

Problem: Which growth category applies to O=C(Cn1ccc(=O)[nH]c1=O)c1ccc([N+](=O)[O-])o1 here?
Result: band 3

Problem: Which growth category applies to COc1cccc(-c2nnc(COc3ccc(-c4nc5ccccc5[nH]4)cc3OC)o2)c1 here?
Result: band 3

Problem: Which growth category applies to CC(=O)OC1Oc2ccccc2-c2oc(=O)c(-c3cc(=O)oc4cc(O)ccc34)cc21 (stereo not given) here?
Result: band 3

Problem: Which growth category applies to COc1cc(/C=C/C(=O)c2cc(-c3ccccc3)ccc2O)cc(OC)c1OC here?
Result: band 2

Problem: Which growth category applies to CC(C)c1[nH]nc2c(NCc3ccc(-c4ccccn4)cc3)nc(SCCN)nc12 here?
Result: band 1

Problem: Which growth category applies to Cc1cc(=O)oc2cc(OCc3cn(CC(O)CO)nn3)ccc12 (stereo not given) here?
Result: band 3

Problem: Which growth category applies to CC1=CC2OC34COC3CC(OC(=O)C(F)(F)F)C4(C)C2(C)CC1 (stereo not given) here?
Result: band 3

Problem: Which growth category applies to Cn1c([N+](=O)[O-])cnc1C=C1C(=O)c2ccccc2C1=O here?
Result: band 1

Problem: Which growth category applies to Fc1cc(-c2ncc(-c3cc(F)c(F)c(F)c3)c(NC3CCCCCC3)n2)cc(F)c1F here?
Result: band 3

Problem: Which growth category applies to CCOC(=O)c1c(C)n(-c2ccc(Cl)cc2)c2ccc(OC(=O)/C=C/c3ccccc3)cc12 here?
Result: band 2

Problem: Which growth category applies to Cc1noc(C)c1-c1ccc2nc(NC(=O)[C@H]3CCN(C#N)C3)cn2c1 here?
Result: band 2

Problem: Which growth category applies to CCOC(=O)Nc1ccc2c(c1)C(=O)N(CCOC)c1ccccc1O2 here?
Result: band 2

Problem: Which growth category applies to C/C(=N/NC(=O)c1sc(=S)n(C)c1N)c1cc2cc(Cl)ccc2o1 here?
Result: band 2

Problem: Which growth category applies to COc1cccc2c1O/C(=C\c1ncc([N+](=O)[O-])n1C)C2=O here?
Result: band 1

Problem: Which growth category applies to O=C(C=P(c1ccccc1)(c1ccccc1)c1ccccc1)c1ccc(Br)cc1 here?
Result: band 2

Problem: Which growth category applies to Cc1cc(C#Cc2ccccc2)ccc1-n1c(/C=C/c2cc(O)ccc2O)nc2ccccc2c1=O here?
Result: band 1

Problem: Which growth category applies to O=[N+]([O-])c1ccc(-c2nc(-c3ccccc3)c(-c3ccccc3)n2-c2ccccc2)cc1 here?
Result: band 1

Problem: Which growth category applies to COc1cc2c3c(cccc3c1)C(=O)N(CCN1CCCC1)C2=O here?
Result: band 1

Problem: Which growth category applies to CCN(CC)CCCOC(=O)Nc1ccccc1Cl here?
Result: band 3

Problem: Which growth category applies to CCCCCCCCCCCCc1ccc(C(=O)/C=C/C(=O)O)cc1 here?
Result: band 1

Problem: Which growth category applies to C[C@H](NC(=O)[C@@H]1CSSC[C@@H](NC(=O)Cc2nc3ccccc3cc2O)C(=O)NCC(=O)N1C)c1ccccc1 here?
Result: band 2

Problem: Which growth category applies to COc1ccc(/C=C2\CCC3C(CCCC34OCCO4)C2=O)cc1 (stereo not given) here?
Result: band 3

Problem: Which growth category applies to CC(C)C[C@H](NC(=O)CCn1ccc2ccccc2c1=O)B(O)O here?
Result: band 1

* * *

Test system: CCRF-CEM leukemia
Assay: NCI-60 one-dose screen, 48 h (100 = growth as untreated, 0 = no growth, -100 = all killed)
Condition Label: 10 µM
About 83,000 compounds went through this panel and 20% of them were active in at least one assay; those are over-represented in the sample as a whole.
Label 1.0 when growth < 20%; otherwise 0.0.

Problem: Is 20% strictly greater than the molecule's reported growth? molecule: COc1cccc(C2(C)Nc3ccccc3-c3nc4ccccc4n32)c1 (stereo not given)
Result: 0.0

Problem: Is 20% strictly greater than the molecule's reported growth? molecule: O=[N+]([O-])c1ccc(-c2nc(-c3ccccc3)c(-c3ccccc3)n2-c2ccccc2)cc1
Result: 1.0

Problem: Is 20% strictly greater than the molecule's reported growth? molecule: CCc1ccc(-c2nnc(COc3ccc(-c4nc5ccccc5[nH]4)cc3OC)o2)cc1
Result: 0.0

Problem: Is 20% strictly greater than the molecule's reported growth? molecule: O=C(O)c1cc(C(F)(F)F)cc(C(F)(F)F)c1
Result: 0.0

Problem: Is 20% strictly greater than the molecule's reported growth? molecule: O=C(O)c1ccc(CNc2ccc(C(=O)CCl)cc2)cc1
Result: 0.0

Problem: Is 20% strictly greater than the molecule's reported growth? molecule: CCOC(=O)CSC(=S)SCC(=O)OCC
Result: 0.0

Problem: Is 20% strictly greater than the molecule's reported growth? molecule: N=C(N)c1ccc(-c2ccc(-c3ccccc3)s2)cc1F
Result: 1.0

Problem: Is 20% strictly greater than the molecule's reported growth? molecule: COc1cc(Cl)cc(-c2nn(-c3cccc(NC(=O)Nc4cccc(C(F)(F)F)c4)c3)cc2-c2ccncc2)c1
Result: 1.0

Problem: Is 20% strictly greater than the molecule's reported growth? molecule: Cc1cc(OI)c(C(C)C)cc1-c1cc(C(C)C)c(OI)cc1C
Result: 0.0

Problem: Is 20% strictly greater than the molecule's reported growth? molecule: Oc1cc(O)c(Br)cc1Br
Result: 0.0

Problem: Is 20% strictly greater than the molecule's reported growth? molecule: Oc1ccc(/C=N\Nc2ccccn2)c(O)c1
Result: 1.0

Problem: Is 20% strictly greater than the molecule's reported growth? molecule: COc1ccccc1S(=O)(=O)Nc1ccc2c(c1)CN(C)C(=O)N2
Result: 0.0

Problem: Is 20% strictly greater than the molecule's reported growth? molecule: CS(=O)(=O)Nc1ccc(OCc2nnc(-c3ccc(Cl)cc3)o2)c(F)c1
Result: 0.0

Problem: Is 20% strictly greater than the molecule's reported growth? molecule: CN1CCN(c2nc(-c3cccnc3)nc3sc4c(c23)CCCCCC4)CC1
Result: 0.0

Problem: Is 20% strictly greater than the molecule's reported growth? molecule: O=C(O)c1ccccc1C(=O)c1cccc2c(F)cccc12
Result: 0.0

Problem: Is 20% strictly greater than the molecule's reported growth? molecule: Cc1nc(N)sc1Sc1nc2ccc(Cl)cc2c(=O)n1-c1ccc(Oc2ccccc2)cc1
Result: 0.0

Problem: Is 20% strictly greater than the molecule's reported growth? molecule: COc1ccc(N2CCN(c3nc(-c4ccccc4)c(C#N)c(=O)[nH]3)CC2)cc1
Result: 0.0

Problem: Is 20% strictly greater than the molecule's reported growth? molecule: Fc1cc(-c2ncc(-c3cc(F)c(F)c(F)c3)c(NC3CCCCCC3)n2)cc(F)c1F
Result: 0.0

Problem: Is 20% strictly greater than the molecule's reported growth? molecule: O=C(NC1CCN(Cc2ccccc2)CC1)c1cc(-c2ccncc2)nc2ccc(Cl)cc12
Result: 1.0

Problem: Is 20% strictly greater than the molecule's reported growth? molecule: CCCOCC(O)CNCCN (stereo not given)
Result: 0.0

Problem: Is 20% strictly greater than the molecule's reported growth? molecule: COc1cc(Cn2c(-c3ccccc3)cc3c2-c2oncc2CC3)cc(OC)c1
Result: 1.0

Problem: Is 20% strictly greater than the molecule's reported growth? molecule: O=C1/C(=C/c2ccc(O)cc2)Cc2ccc(Cl)cc21
Result: 0.0

Problem: Is 20% strictly greater than the molecule's reported growth? molecule: O=C(OCc1ncc(-c2ccc(C(F)(F)F)cc2)c(NC2CCCCCC2)n1)c1c(F)c(F)c(F)c(F)c1F
Result: 1.0

Problem: Is 20% strictly greater than the molecule's reported growth? molecule: CCN(CC)CCOC(=O)c1ccc(NC(=O)Nc2cccc(Cl)c2)cc1
Result: 1.0

Problem: Is 20% strictly greater than the molecule's reported growth? molecule: Cc1ccc2nc(-c3ccc(OCC(=O)N=Nc4c(O)[nH]c5ccccc45)cc3)[nH]c2c1
Result: 1.0

Problem: Is 20% strictly greater than the molecule's reported growth? molecule: Cc1ccccc1C1=N[C@@H](Cc2ccccc2)C(=O)c2c(nc3ccccn23)N1
Result: 0.0

Problem: Is 20% strictly greater than the molecule's reported growth? molecule: O=C(O)CNS(=O)(=O)c1ccc(OCCOc2ccc(S(=O)(=O)NCC(=O)O)cc2)cc1
Result: 0.0

Problem: Is 20% strictly greater than the molecule's reported growth? molecule: CC(C)C[C@H](NC(=O)Cn1ccc2ccccc2c1=O)B(O)O
Result: 1.0

Problem: Is 20% strictly greater than the molecule's reported growth? molecule: O=C(Nc1cccc(Cl)c1)Nc1cc2ncncc2cc1OCc1cccc(F)c1
Result: 1.0

Problem: Is 20% strictly greater than the molecule's reported growth? molecule: Cc1cc2cc3c(=O)[nH]c(=O)cc-3n(CC(O)C(O)C(O)CO)c2cc1C (stereo not given)
Result: 0.0

Problem: Is 20% strictly greater than the molecule's reported growth? molecule: O=C(/C=C/c1ccc(Cl)cc1)c1ccc(Br)cc1
Result: 0.0

Problem: Is 20% strictly greater than the molecule's reported growth? molecule: COC(=O)c1c(C)nc(Nc2nc3ccccc3s2)nc1-c1ccc(Cl)cc1Cl
Result: 0.0

Problem: Is 20% strictly greater than the molecule's reported growth? molecule: COc1cc(C2c3cc4c(cc3C(O)C(CO)C2CO)OCO4)cc(OC)c1OC (stereo not given)
Result: 1.0

Problem: Is 20% strictly greater than the molecule's reported growth? molecule: Nc1ccc(C2=CC(c3ccc(Cl)cc3)N3C=CSC3=N2)cc1 (stereo not given)
Result: 1.0

Problem: Is 20% strictly greater than the molecule's reported growth? molecule: Cc1cn(C(=O)/C(Cl)=C(/Cl)C(=O)O)c2ccccc12
Result: 0.0

Problem: Is 20% strictly greater than the molecule's reported growth? molecule: COc1ccc(C(=O)c2sc3nc(-c4cccs4)ccc3c2N)cc1OC
Result: 0.0

Problem: Is 20% strictly greater than the molecule's reported growth? molecule: COc1cccc(C(=O)NNc2nc(N3CCN(C4CCCCC4)CC3)nc(N3CCN(C(c4ccccc4)c4ccccc4)CC3)n2)c1
Result: 0.0

Problem: Is 20% strictly greater than the molecule's reported growth? molecule: CC(=O)n1nc(C(=O)OC(C)(C)C)c2cc(F)c(F)cc21
Result: 0.0

Problem: Is 20% strictly greater than the molecule's reported growth? molecule: O=C(NC1CCCC1)c1ccc(N2CCC(NCc3cccc(C(F)(F)F)c3)CC2)cc1
Result: 0.0

Problem: Is 20% strictly greater than the molecule's reported growth? molecule: CCCCNC(=O)Oc1ccc(/C(=C(\C)c2ccc(OC)cc2)c2ccc(OCCN3CCCCC3)cc2)cc1
Result: 0.0
